Kindly supply the reported IC50 values for the records listed here.
- Tested on: MIA PaCa2
- testDescription: Cell viability assay
- Type: cell-based, human
- reportedConditions: read-out: IC50 (μM) MIA PaCa2; MTT, 72 hours, n=4 ± SE
The response must be a number in µM with no trailing unit.

Query string: Consider the molecule `CSc1c2ccnc3c2c(n1C)C(=O)C(N)=C3Cl` and give its measured IC50.
Result string: 2.67

Query string: What do you have for `CSc1c2c3c(n1C)C(=O)C(N)=C(Cl)C3=NCC2` ?
Result string: 4.34

---

Kindly supply the reported IC50 values for the records listed here.
- System: MIA PaCa2
- testDescription: Cell viability assay
- Format: cell-based, human
- reportedConditions: Homo sapiens, MIA PaCa-2, 72 h, read-out: IC50 (μM) MIA PaCa2
The response must be a number in µM with no trailing unit.

Query string: Consider the molecule O=c1[nH]cc(F)c(=O)[nH]1 [5-Fluorouracil, 5-fluorouracil, reference compound] and give its measured IC50.
Result string: 8.31

Query string: What do you have for `Cn1cc2c3c1C(=O)C(N)=C(Cl)C3=NCC2` ?
Result string: 2.34

Query string: What do you have for N=C1C(Cl)=C(N)C(=O)c2[nH]cc(C(O)CO)c21 (centres unmarked) ?
Result string: 5.63
